Reference source: ChEMBL document CHEMBL5291721

The next entries give measured AC50 for Cannabinoid receptor 1 (Homo sapiens).

Some solved cases for reference:
C[C@]12CC[C@H]3[C@@H](CCC4=CC(=O)CC[C@@]43C)[C@@H]1CC[C@@H]2O ... > 10 µM
CN(C)/N=N/c1[nH]cnc1C(N)=O ... > 10 µM
CCCC1O[C@@H]2C[C@H]3[C@@H]4CCC5=CC(=O)C=C[C@]5(C)[C@H]4[C@@H](O)C[C@]3(C)[C@]2(C(=O)CO)O1 (stereo partly drawn) [BUDESONIDE] ... > 10 µM
CCC(C)n1ncn(-c2ccc(N3CCN(c4ccc(OCC5COC(Cn6cncn6)(c6ccc(Cl)cc6Cl)O5)cc4)CC3)cc2)c1=O (stereo not drawn) ... > 30 µM
NS(=O)(=O)Cc1noc2ccccc12 [ZONISAMIDE] ... > 10 µM

# evaluate next
Lookup: Param readout = AC50; param system = Cannabinoid receptor 1 (Homo sapiens); param query = C[C@]12CCC(=O)C=C1CC[C@@H]1[C@@H]2[C@@H](O)C[C@@]2(C)[C@H]1CC[C@]2(O)C(=O)CO [HYDROCORTISONE] ; response: value; also: assay procedure not described here
Sequence (P21554 whole entry): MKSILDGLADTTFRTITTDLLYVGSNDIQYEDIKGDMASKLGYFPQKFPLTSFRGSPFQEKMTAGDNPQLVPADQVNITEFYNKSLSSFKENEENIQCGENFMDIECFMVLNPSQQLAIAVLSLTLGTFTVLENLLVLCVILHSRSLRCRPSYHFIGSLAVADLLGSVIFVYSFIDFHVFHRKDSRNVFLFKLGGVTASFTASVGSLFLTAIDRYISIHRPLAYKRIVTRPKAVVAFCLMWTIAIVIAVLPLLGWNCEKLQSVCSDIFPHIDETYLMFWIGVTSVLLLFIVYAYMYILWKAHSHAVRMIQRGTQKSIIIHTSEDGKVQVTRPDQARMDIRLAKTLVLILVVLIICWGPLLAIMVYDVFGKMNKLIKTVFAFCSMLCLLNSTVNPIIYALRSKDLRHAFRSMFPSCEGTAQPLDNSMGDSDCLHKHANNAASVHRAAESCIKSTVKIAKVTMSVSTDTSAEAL
Found: > 10 µM
